Assay remarks: recombinant UMI read abundance after kanamycin selection (control-corrected) (log10(CPM+1)); higher = more efficient recombination; extreme values may be limits of the assay; sequences stand for … in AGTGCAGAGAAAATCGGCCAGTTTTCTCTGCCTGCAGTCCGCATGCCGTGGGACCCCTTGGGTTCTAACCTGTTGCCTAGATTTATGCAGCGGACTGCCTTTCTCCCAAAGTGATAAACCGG…AGGTTGGTTTCACT; site = the 11-nt donor;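 further: IS621 bridge recombinase in Escherichia coli cells against a fixed T5 target plasmid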
Experimental endpoint: recombinant UMI read abundance (log10)

recombinant UMI read abundance (log10) for CTCCACACATGGACCGGTTTTCCCGGTAATCCGTATTTGCT (site CTCCACACTAG) is 2.08

The sequence CGGGAGCCATGGACCGGTTTTCCCGGTAATCCGTATTTGCC (site CGGGAGCCTGG) showed recombinant UMI read abundance (log10) equal to 0

GET /value?item= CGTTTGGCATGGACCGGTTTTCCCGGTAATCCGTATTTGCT (site CGGTTGGCTAG) &field=recombinant UMI read abundance (log10) returns 0

Reported recombinant UMI read abundance (log10) for GACAAAACATGGACCGGTTTTCCCGGTAATCCGTATTTGGT (site GACAAATCTAC) was 0

The reported recombinant UMI read abundance (log10) of the sequence GGTCACCCATGGACCGGTTTTCCCGGTAATCCGTATTTGTT (site GGACACCCTAA) was 0

Kindly note the recorded recombinant UMI read abundance (log10) for TCCAATTCATGGACCGGTTTTCCCGGTAATCCGTATTTGCA (site TCCAATTCTTG) , which is 0

The recorded recombinant UMI read abundance (log10) for entry CGGAGATCATGGACCGGTTTTCCCGGTAATCCGTATTTGGT (site CGGAGATCTAC) equals 2.19

So for CCGGAAACATGGACCGGTTTTCCCGGTAATCCGTATTTGCA (site CAGGAAACTTG) , the logged recombinant UMI read abundance (log10) turned out to be 0

Form: sequence = ACCTCTCCATGGACCGGTTTTCCCGGTAATCCGTATTTGCA (site ACCTCTCCTTG) ; recombinant UMI read abundance (log10) = 0.367

Record CAAGCCGCATGGACCGGTTTTCCCGGTAATCCGTATTTGCT (site CAAGCCGCTAG) , field recombinant UMI read abundance (log10): 2.56

ACACGACCATGGACCGGTTTTCCCGGTAATCCGTATTTGTC (site ACACGAACTGA) has a reported recombinant UMI read abundance (log10) of 0.0114

Per the records, this sequence ( GGGAAGACATGGACCGGTTTTCCCGGTAATCCGTATTTGCA (site GGGAAGACTTG) ) has recombinant UMI read abundance (log10) equal to 1.96

So, ACACGGACATGGACCGGTTTTCCCGGTAATCCGTATTTGTC (site ACACGAACTGA) ? Its recombinant UMI read abundance (log10) was 0

The reported recombinant UMI read abundance (log10) of the sequence AGGATTACATGGACCGGTTTTCCCGGTAATCCGTATTTGAC (site AGGAATACTGT) was 0

# recombinant UMI read abundance (log10) (sequence: GGATACACATGGACCGGTTTTCCCGGTAATCCGTATTTGCC (site GGATAAACTGG) ) is 0

recombinant UMI read abundance (log10) in this record for ACAGCTACATGGACCGGTTTTCCCGGTAATCCGTATTTGTG (site ACATCTACTCA) : 0.0498

Summary for this sequence, ATGTTGGCATGGACCGGTTTTCCCGGTAATCCGTATTTGGC (site ATGTAGGCTGC) : recombinant UMI read abundance (log10) is 1.71

// recorded recombinant UMI read abundance (log10) for GACAACCCATGGACCGGTTTTCCCGGTAATCCGTATTTGGT (site GACAATCCTAC) : 0

The reported recombinant UMI read abundance (log10) of the sequence CCATGAGCATGGACCGGTTTTCCCGGTAATCCGTATTTGAG (site CCATGAGCTCT) was 0.662

Given item AACAGTCCATGGACCGGTTTTCCCGGTAATCCGTATTTGAT (site AACAGTCCTAT) , the value recorded as its recombinant UMI read abundance (log10) is 0.504

TAGCTGGCATGGACCGGTTTTCCCGGTAATCCGTATTTGAA (site TAGCTAGCTTT) has a reported recombinant UMI read abundance (log10) of 0.588

For this sequence ( GGTCCAACATGGACCGGTTTTCCCGGTAATCCGTATTTGTG (site GGTCCAACTAA) ), measured recombinant UMI read abundance (log10) is 0.00832

# sequence GTACGCACATGGACCGGTTTTCCCGGTAATCCGTATTTGTA (site GTAGGCACTTA) ; its recombinant UMI read abundance (log10) = 0.0167

# recombinant UMI read abundance (log10) of CAAGTCCCATGGACCGGTTTTCCCGGTAATCCGTATTTGGG (site CAAGTCGCTCC) = 0.0161

Measured recombinant UMI read abundance (log10), ACCCATACATGGACCGGTTTTCCCGGTAATCCGTATTTGAA (site ACCCATACTTT) : 1.34

Lab note: AGCACGACATGGACCGGTTTTCCCGGTAATCCGTATTTGCA (site AGCACGACTTG) gave recombinant UMI read abundance (log10) of 2.02

Quick note, recombinant UMI read abundance (log10) for CGGTTGGCATGGACCGGTTTTCCCGGTAATCCGTATTTGCT (site CGGTTGGCTAG) landed at 1.08

recombinant UMI read abundance (log10) reported for this sequence TAAAGTCCATGGACCGGTTTTCCCGGTAATCCGTATTTGTA (site TAAGGTCCTTA) : 0.198

// recorded recombinant UMI read abundance (log10) for CTTTACACATGGACCGGTTTTCCCGGTAATCCGTATTTGCT (site CTTTACACTAG) : 1.81

For CAAGGCACATGGACCGGTTTTCCCGGTAATCCGTATTTGGG (site CAAGGCACTCC) the sequence record lists recombinant UMI read abundance (log10) as 0.0216

Quick note, recombinant UMI read abundance (log10) for TAAACTCCATGGACCGGTTTTCCCGGTAATCCGTATTTGTA (site TAAAGTCCTTA) landed at 0.221

# recombinant UMI read abundance (log10) of ACAGCGTCATGGACCGGTTTTCCCGGTAATCCGTATTTGAC (site ACAGCGTCTGT) = 3.29

# recombinant UMI read abundance (log10) (sequence: TAGACTTCATGGACCGGTTTTCCCGGTAATCCGTATTTGGT (site TAGTCTTCTAC) ) is 0.175

Just so you know, measured recombinant UMI read abundance (log10) for GCGTTAGCATGGACCGGTTTTCCCGGTAATCCGTATTTGTG (site TCGTTAGCTCA) came out at 0.669

In plain terms, AGAGCATCATGGACCGGTTTTCCCGGTAATCCGTATTTGAA (site AGAGCATCTTT) has a documented recombinant UMI read abundance (log10) of 2.33

Briefly, recombinant UMI read abundance (log10) measured for AAGCGTTCATGGACCGGTTTTCCCGGTAATCCGTATTTGTT (site AAGCGTTCTAA) : 1.52
